test system: SW480 cell line; experiment: Cell metabolism of phenolic compounds (UHPLC-HR-MS analysis of cell media); format: in vitro ADME, Human; details: SW480, 48 h, substrate 3-O-Caffeoylquinic acid trans 50 μmol/L
recorded.metric: Concentration of newly formed metabolite (nM)

>>> value_observed("COc1cc(/C=C/C(=O)OC2CC(O)(C(=O)O)CC(O)C2O)ccc1O (centres unmarked)")
120
>>> value_observed("COc1cc(/C=C/C(=O)OC2C(O)CC(O)(C(=O)O)CC2O)ccc1O (centres unmarked)")
40

(a) O=C(/C=C/c1ccc(O)c(O)c1)OC1[C@H](O)CC(O)(C(=O)O)C[C@H]1O (stereo partly drawn) [4-O-Caffeoylquinic acid trans, 4-O-Caffeoylquinic acid]
(b) COc1cc(/C=C/C(=O)O[C@@H]2C[C@@](O)(C(=O)O)C[C@@H](O)[C@@H]2O)ccc1O
(c) O=C(O)/C=C/c1ccc(O)c(O)c1
Parameters: sort_field (Concentration of newly formed metabolite), sort_dir (desc). Output spec: a listing of the labels in the requested order.
a, c, b
(a: 8070 nM, c: 430 nM, b: 30 nM)

----------
Tested on: SW480 cell line
Test: Cell metabolism of phenolic compounds (UHPLC-HR-MS analysis of cell media)
Assay type: in vitro ADME, Human
Conditions: SW480, 72 h, substrate 3,5-di-O-Caffeoylquinic acid 50 μmol/L
Protocol: To analyze the metabolism of phenolic compounds by Caco-2 and SW480 cells, the cell culture media were withdrawn after 0, 24, 48 and 72 h of incubation. Phenolic compounds were extracted from the culture media by following the procedure reported in Sala et al.. Briefly, 100 μL of cold methanol was mixed with 100 μL of cell media and vortexed for 1 min. […] Quantification was carried out by building external calibration curves with the available standard compounds.
recorded.metric: Concentration of newly formed metabolite (nM)

>>> value_observed("O=C(/C=C/c1ccc(O)c(O)c1)OC1[C@H](O)CC(O)(C(=O)O)C[C@H]1O (stereo partly drawn) [4-O-Caffeoylquinic acid trans, 4-O-Caffeoylquinic acid]")
250

(a) O=C(/C=C/c1ccc(O)c(O)c1)OC1C(O)CC(OC(=O)/C=C/c2ccc(O)c(O)c2)(C(=O)O)CC1O (stereo not drawn)
(b) O=C(/C=C/c1ccc(O)c(O)c1)O[C@@H]1[C@H](O)C[C@@](O)(C(=O)O)C[C@H]1OC(=O)/C=C/c1ccc(O)c(O)c1
(c) O=C(O)/C=C/c1ccc(O)c(O)c1
Please give the order of these compounds when sorted by Concentration of newly formed metabolite, largest value leading. Form entry: ranked labels (order as requested).
b, c, a

----------
test system: SW480 cell line; test: Cell metabolism of phenolic compounds (UHPLC-HR-MS analysis of cell media); type: in vitro ADME, Human; details: SW480, 48 h, substrate 5-O-Caffeoylquinic acid trans 50 μmol/L
recorded.metric: Concentration of newly formed metabolite (nM)

Worked cases, answers included:
>>> value_observed("COc1cc(/C=C/C(=O)O[C@@H]2C[C@@](O)(C(=O)O)C[C@@H](O)[C@@H]2O)ccc1O [5-O-Feruloylquinic acid]")
30
>>> value_observed("COc1cc(/C=C/C(=O)O)ccc1O [Ferulic acid]")
330
>>> value_observed("COc1cc(/C=C/C(=O)OC2CC(O)(C(=O)O)CC(O)C2O)ccc1O (centres unmarked) [3-O-Feruloylquinic acid]")
70
>>> value_observed("COc1cc(/C=C/C(=O)OC2C(O)CC(O)(C(=O)O)CC2O)ccc1O (centres unmarked) [4-O-Feruloylquinic acid]")
50

(1) O=C(/C=C/c1ccc(O)c(O)c1)O[C@@H]1C[C@](O)(C(=O)O)C[C@@H](O)[C@H]1O [3-O-Caffeoylquinic acid cis, 3-O-Caffeoylquinic acid]
(2) O=C(/C=C/c1ccc(O)c(O)c1)O[C@@H]1C[C@](O)(C(=O)O)C[C@@H](O)[C@H]1O [5-O-Caffeoylquinic acid cis, 5-O-Caffeoylquinic acid]
(3) O=C(/C=C/c1ccc(O)c(O)c1)OC1[C@H](O)CC(O)(C(=O)O)C[C@H]1O (stereo partly drawn) [4-O-Caffeoylquinic acid trans, 4-O-Caffeoylquinic acid]
(4) O=C(O)/C=C/c1ccc(O)c(O)c1 [Caffeic acid]
List from greatest to least Concentration of newly formed metabolite. Answer by listing the labels in the order asked for.
3, 2, 1, 4
(3: 14800 nM, 2: 970 nM, 1: 360 nM, 4: 80 nM)

Origin of measurements: paper PMC10418599
